Cited source for all entries: the supplement of paper PMC13380429

system: U2OS; experiment: cell viability relative to DMSO; higher = less toxic; details: 72 h; 1 nM
Recorded Endpoint: cell viability (%)
Entry rule: numbers only, all in %.

Some compounds with recorded cell viability:
{"columns": ["Compound", "Study System", "cell viability / %"],
 "data": [
  ["C[C@@H]1O[C@@H](O[C@H]2[C@H](Oc3cc(O)c4c(c3)O[C@H](c3ccc(O)cc3)CC4=O)O[C@H](CO)[C@@H](O)[C@@H]2O)[C@H](O)[C@H](O)[C@H]1O [Naringin (Naringoside)]", "U2OS", 99.6],
  ["CCC(=O)c1ccc(OCC(O)CN2CCN(c3ccccc3)CC2)cc1 (centres undefined)", "U2OS", 100],
  ["COc1ccc(-n2nc(CCC(=O)N(C)O)cc2-c2ccc(Cl)cc2)cc1", "U2OS", 97.1],
  ["Nc1ccc(C(=O)O)cc1 [potassium-p-aminobenzoate]", "U2OS", 96.2],
  ["Cn1c(=O)[nH]c2ncn(C)c2c1=O", "U2OS", 97.4]
]}

# compound CCCN(CCC)[C@H]1CCc2cccc(O)c2C1 [8-hydroxy-DPAT] ; its cell viability = 96.9
